Numbers sourced from PubChem BioAssay (NCI).

Overview of reported TGI across a group of compounds:
system: SW-620 colon; assay: NCI tumour cell line growth inhibition, 48 h

COMPOUND | TGI
COc1ccc(COCCOCc2nc(C#N)c(N)o2)cc1 | > 100 µM
CCCC1C(=O)CCc2c(OC)ccc(OC)c21 (centres undefined) | > 100 µM

Query: Look up TGI for this compound: `COc1cc2nc3n(c(=O)c2cc1OC)-c1ccc([N+](=O)[O-])cc1C3=O`
Reply: 62.2 µM

Query: Look up TGI for this compound: `O=C(Nc1ccc(F)cc1)Nc1ccc(Cl)c([N+](=O)[O-])c1`
Reply: 13.9 µM

Query: Look up TGI for this compound: CCCCCCCCCCCCCCNC(=O)CCC(NC(=O)c1ccc(N(C)Cc2cnc3nc(N)nc(N)c3n2)cc1)C(=O)NCCCCCCCCCCCCCC (centres undefined)
Reply: > 43 µM

Query: Look up TGI for this compound: `CC[C@@H]1CC[C@@H]2[C@H](CC[C@]3(C)[C@@H](OC(C)=O)CC[C@@H]23)[C@H]1COC(C)=O`
Reply: > 100 µM

Query: Look up TGI for this compound: `COc1cnc2c(c1)C(=O)c1c-2n(CCCN2CCOCC2)c(=O)c2cc(F)ccc12`
Reply: > 100 µM

Query: Look up TGI for this compound: OC1CSSC1Cn1cnc2c(Nc3ccc(OCc4cccc(F)c4)c(Cl)c3)ncnc21 (centres undefined)
Reply: 4.54 µM

Query: Look up TGI for this compound: `COc1cccc(-c2cc(-c3cccc(NS(C)(=O)=O)c3)nc(N)c2C#N)c1O`
Reply: > 100 µM

Query: Look up TGI for this compound: C1=C2/CC[C@H](Sc3ccccc3)C2C2(CCCCC/1)OCCO2 (some centres undefined)
Reply: > 100 µM

Query: Look up TGI for this compound: `c1ccc(N=c2sc3ccccc3nc2Nc2ccccc2)cc1`
Reply: > 100 µM

Query: Look up TGI for this compound: `CC1(C)N=[N+]([O-])C1(C)C`
Reply: > 100 µM

Query: Look up TGI for this compound: O=C1/C(=C\c2ccccc2)C(NC2CCCCC2)c2ccccc21 (centres undefined)
Reply: 2.12 µM

Query: Look up TGI for this compound: `O=c1c2cc([N+](=O)[O-])cnc2sn1-c1ccc([N+](=O)[O-])cc1`
Reply: > 100 µM

Query: Look up TGI for this compound: `CC(=O)[CH-]C(=O)c1ccccc1.CC(=O)[CH-]C(=O)c1ccccc1.CN(C)c1ccc([O-])cc1.CN(C)c1ccc([O-])cc1.Cl.[Ti+4]`
Reply: > 31.6 µM

Query: Look up TGI for this compound: `NS(=O)(=O)c1ccc2c(c1)OCCOCCOCCOCCO2`
Reply: > 100 µM

Query: Look up TGI for this compound: COc1ccc(C2CC(c3c(O)ccc4ccccc34)=NN2C(C)=O)cc1OC (centres undefined)
Reply: > 100 µM

Query: Look up TGI for this compound: CN1CCc2cc(N)cc3c2C1Cc1ccc(O)c(O)c1-3 (centres undefined)
Reply: > 100 µM

Query: Look up TGI for this compound: COC([CH2][Hg][n]1cnc2c1c(=O)n(C)c(=O)n2C)CN1C(=O)c2ccccc2S1(=O)=O (centres undefined)
Reply: > 100 µM

###

system: UO-31 renal; test: NCI tumour cell line growth inhibition, 48 h
MEASURE_NAME: TGI

A selection of reference data follows.
COMPOUND | TGI
Cc1ccc(S(=O)(=O)OC[C@@H]2CO2)cc1 | > 100 µM
COc1cc(Br)cc2cc(-c3cn4ccsc4n3)c(=O)oc12 | > 100 µM
CN1C(=O)C2CCC(=O)N2c2cccnc21 (centres undefined) | > 100 µM

Query: Requested read-out TGI, target or system UO-31 renal, entry `O=C(CCc1nc(=S)[nH][nH]1)Nc1cc(Cl)c(Cl)cc1Cl`
Reply: > 100 µM

Query: Requested read-out TGI, target or system UO-31 renal, entry `c1csc(-c2ccc(-c3cccc4nsnc34)s2)c1`
Reply: > 100 µM

Query: Requested read-out TGI, target or system UO-31 renal, entry C[C@]12CCC(O)CC1=CC[C@@H]1[C@@H]2CC[C@]2(C)C(=O)[C@H](n3ccnc3)C[C@@H]12 (some centres undefined)
Reply: > 100 µM

Query: Requested read-out TGI, target or system UO-31 renal, entry `CCOC(=O)/C=C/CC(C)(C)CCOC(C)=O`
Reply: > 10 µM

Query: Requested read-out TGI, target or system UO-31 renal, entry `COc1ccc(N/N=C2\CCOc3ccc(C)cc3C2=O)cc1`
Reply: > 100 µM

###

test system: 786-0 renal; assay: NCI tumour cell line growth inhibition, 48 h
MEASURE_NAME: TGI

COMPOUND | SYSTEM_NAME | TGI
CCOC(=O)CSc1c(C(=O)OCC)c(=O)n(-c2ccccc2)c(=S)n1-c1ccccc1 | 786-0 renal | > 100 µM
CC1(C)OC(=O)N(c2ccccc2)C12C=Cc1cc([N+](=O)[O-])cc([N+](=O)[O-])c1O2 (stereo not given) | 786-0 renal | > 100 µM
O=C(CC(=O)c1cccc2ccccc12)C(=O)Nc1ccc(Cl)cc1 | 786-0 renal | > 100 µM
Nc1c(C(=O)c2cccc(CCS(N)(=O)=O)c2)cnn1-c1ccc(F)cc1 | 786-0 renal | > 25 µM

Query: Look up TGI for this compound: `COc1ccc(-c2cc(O)c3nc4ccccc4n3c2)cc1`
Reply: > 100 µM

###

test system: SF-539 CNS; assay: NCI tumour cell line growth inhibition, 48 h
Overview of reported TGI across a group of compounds:

A selection of reference data follows.
COMPOUND | MEASURE_NAME | VALUE_OBSERVED
COc1ccc(COCCOCc2nc(C#N)c(N)o2)cc1 | TGI | > 100 µM
CN1C(=O)C2CCC(=O)N2c2cccnc21 (configuration not stated) | TGI | > 100 µM

Query: Requested read-out TGI, target or system SF-539 CNS, entry `Cc1ccc(S(=O)(=O)OC[C@@H]2CO2)cc1`
Reply: > 100 µM

Query: Requested read-out TGI, target or system SF-539 CNS, entry `CN1CCN(C2=NCCO2)CC1`
Reply: > 100 µM

Query: Requested read-out TGI, target or system SF-539 CNS, entry `CC(=O)[CH-]C(=O)c1ccccc1.CC(=O)[CH-]C(=O)c1ccccc1.CN(C)c1ccc([O-])cc1.CN(C)c1ccc([O-])cc1.Cl.[Ti+4]`
Reply: > 31.6 µM

###

test system: SK-MEL-5 melanoma; test: NCI tumour cell line growth inhibition, 48 h
Overview of reported TGI across a group of compounds:

Query: Look up TGI for this compound: `NC(N)=N/N=C/c1c(-c2ccc(N)cc2)nc2sccn12`
Reply: > 100 µM

Query: Look up TGI for this compound: COc1cc(C2c3cc4c(cc3OC(N3CCOCC3)C2C)OCO4)ccc1O (centres undefined)
Reply: > 80.4 µM

Query: Look up TGI for this compound: `COC(=O)c1cc(=O)nc2sc3cccc(C)c3n12`
Reply: > 100 µM

Query: Look up TGI for this compound: `COC(=O)CC[N+]1=CCC(c2ccccc2)(c2ccccc2)O1`
Reply: > 100 µM

###

test system: MOLT-4 leukemia; experiment: NCI tumour cell line growth inhibition, 48 h
MEASURE_NAME: TGI

COMPOUND | TGI
COC(=O)CC[N+]1=CCC(c2ccccc2)(c2ccccc2)O1 | > 100 µM
CCCCC#C[I+]c1ccccc1 | 23.9 µM
CC1(C)C(=O)/C=C\C(=O)C(C)(C)C2=CC=C(O2)C(C)(C)C(=O)/C=C\C(=O)C(C)(C)C2=CC=C1O2 | > 100 µM
Nc1c(C(=O)c2cccc(CCS(N)(=O)=O)c2)cnn1-c1ccc(F)cc1 | > 25 µM
Cc1ccc([N+](=O)[O-])cc1NC1=NCCO1 | > 100 µM

Query: Look up TGI for this compound: `C=CCOc1ccc2c(C)cc(=O)oc2c1C`
Reply: > 100 µM

Query: Look up TGI for this compound: C=CC1(C)CCC2C(=CCC3C2(C)CC(O)C(O)C3(C)COC2OC(C(=O)O)C(O)C(O)C2O)C1 (centres undefined) (tested in a mixture with another compound)
Reply: > 100 µM

Query: Look up TGI for this compound: `COC(=O)/C(C#N)=C1\NC(=O)c2ccccc21`
Reply: > 100 µM

###

test system: BT-549 breast; assay: NCI tumour cell line growth inhibition, 48 h
Overview of reported TGI across a group of molecules:

A selection of reference data follows.
MOLECULE | MEASURE_NAME | VALUE_OBSERVED
Cn1cc(C2=C(c3c4n(c5ccccc35)CCCCC4)C(=O)NC2=O)c2ccccc21 | TGI | > 25 µM
NS(=O)(=O)c1ccc2c(c1)OCCOCCOCCOCCO2 | TGI | > 100 µM

Next:
Query: Requested read-out TGI, target or system BT-549 breast, entry CCOC(=O)C(SCCO)C(C(=O)OCC)n1cnc2c(=O)[nH]c(NC(C)=O)nc21 (stereo not drawn)
Reply: > 100 µM
